Source: ChEMBL document CHEMBL3046050

# System: Priestia megaterium
# assay protocol: Antimicrobial activity against Bacillus megaterium at 20 ug/ml after 24 hr by disk diffusion method
# Type: functional
# assay conditions: read-out: IZ
So basically: zone of inhibition at 20 µg/mL at 20 mm or higher? That is class 1. Lower than 20 mm? That is class 0.

Please review the entries below; each comes with its answer.
- compound: "CCOc1ccccc1N1C(c2ccccc2)C12C(c1ccccc1)=Nc1ccccc12 (stereo not given)"
  target desc: "Priestia megaterium"
  category label: "class 1"
- compound: "O=C(O)c1ccccc1N1C(c2ccccc2)C12C(c1ccccc1)=Nc1ccccc12 (stereo not given)"
  target desc: "Priestia megaterium"
  category label: "class 0"
- compound: "CCOc1cccc(N2C(c3ccccc3)C23C(c2ccccc2)=Nc2ccccc23)c1 (stereo not given)"
  target desc: "Priestia megaterium"
  category label: "class 1"
- compound: "Clc1cccc(N2C(c3ccccc3)C23C(c2ccccc2)=Nc2ccccc23)c1 (stereo not given)"
  target desc: "Priestia megaterium"
  category label: "class 0"

Assess whether reported zone of inhibition at 20 µg/mL for Clc1ccc(N2C(c3ccccc3)C23C(c2ccccc2)=Nc2ccccc23)cc1 (stereo not given) sits at 20 mm or higher.
class 0
